Test system: MS2 coat protein
Assay: apparent KD of MS2 coat protein; higher = weaker reporter binding
Settings: Eterna round: R107; input ligand: theophylline 2 mM
Note to self: values exactly at 0.05 µM are criterion met. So apparent KD of MS2 coat protein at or above 0.05 µM is criterion met, below is criterion not met.

Example results:
CUAUAUUUAUCGGCCGCCACUUACUCAUGAGGUAACAACAUGAGGAUCACCCAUGUUUGAGGAUCAAGGACCGGGAUAAAUAUAG [AstrosSSTryB#17]    criterion not met
GUUUAGAGCUCGGCCGCCACUCAAACAUGAGGAUCACCCAUGUAAAACAUGAGGAUCACCCAUGUGAGGACCGGGAGAAAUAAGA [Exclusion Tryptophan B GF7]    criterion met
UCGCCCAGGAUGGAAUCCUGGGAUAUGGAAGGAGCGCUGAUGCCAGCAGGUAGGUCGCCAACGGACAUGAGGAUCACCCAUGUAC [Same State - Arginine A (Freestyle 9)]    criterion not met
GUAUAAAGAAAACUUUAUACAGUGGGUGAACGAGGACCGGUACGGCCGCCACUCGGACAUGAGGAUCACCCAUGUCCAUGUGAAA [AstrosExyTryA#9]    criterion not met
ACAUUGCGCUCGGCCGCCACUGGCUUAUGAUUAUAAGCAUUAAUGAACAUGAGGAUCACCCAUGUCAGGACCGGGAGCGAACCAU [SSTryp B #7]    criterion not met
AGCACGGUGAUGGUAGCCGGACGAUAAGUACGAGGACCGGUACGGCCGCCACUCGAAGUCCUACGACAUGAGGAUCACCCAUGUA [Same State Trp A GF11]    criterion met
AACGUAUACAGAAGGAGCGUGAUUUAUUAUUCUUUAAGAUAUACAUGAGGAUCACCCAUGUCACAGGUAGGUCGCUGUAUUCGUA [JR_ExcArginiB_Sub025]    criterion not met
UUCACAUGGUAUGAAUAUACAUAUAAGAAACGAGGACCGGUACGGCCGCCACUCGUGCCGGAAACAUGAGGAUCACCCAUGUGUU [AK1.1 Exclusion TrypA mod IceBolt]    criterion met

Data request: Threshold query (apparent KD of MS2 coat protein >= 0.05 µM) on AAAGCCACUUCGGCCGCCACUACAACAUGAGGAUCACCCAUGUACCUCGUGUACGGUCCGAGGAGUAGGACCGGGAAGUGGUGGA [(T1'')-(Trp1)-(Ms2)-(M')-(T2')-(M'')-(Trp2)-(T1')]
Data returned: criterion met

Data request: Threshold query (apparent KD of MS2 coat protein >= 0.05 µM) on AUAACAUGAGGAUCACCCAUGUAAGCAGAUACCAGCUAGGAAACUAGCCCUUGGCAGCUGCAAUCAUGGGUGUUUGCAGCUGCAA [(M1)-(M2)-(T1)-(T2)-(M)'-(T)'_Design2]
Data returned: criterion not met

----------
Test system: MS2 coat protein
Test: apparent KD of MS2 coat protein; designed switch direction (-1 OFF switch, 1 ON switch): -1; higher = weaker reporter binding
Conditions: input ligand: FMN 200 uM
Please map values of apparent KD of MS2 coat protein to classes as shown: class 0: < 0.02 µM; class 1: ≥ 0.02 µM and < 0.1 µM; class 2: ≥ 0.1 µM

ACAUGUCCUGAGGAUAUCAAAGUCCUCCCGACAUGAGAAGGCAGGACAUGAGGAUCACCCAUGUGGAGCAGGGA [Aarorbeti] (Eterna round: R97, puzzle: Exclusion 6)    class 2
GCUCGCGGGCAAGGAUAUCCUACGCUGUUCUGGUUCGUGUCUGUUACAUGAGGAUCACCCAUGUGGGAGAAGGUGCACCAGGGC [Design 48] (Eterna round: R96, puzzle: Exclusion NG 2)    class 0
UCAAAGUCAGGAUAUACAUGAGGAUCACCCAUGUAAAAUUUUAAUUUAAUUUGAAGGUGUAGAAGGGACAAACC [Ex3 #33] (Eterna round: R97, puzzle: Exclusion 3)    class 0
CGCCUGGGAGGAUAUCCAAUAUAUGACAUGAGGAUCACCCAUGUUUCCACUCGUACCUCCGGAGAAGGCCCGGCGU [Ex5 #31] (Eterna round: R97, puzzle: Exclusion 5)    class 1
ACUUGUUGUCCUUGAUAUUACAUGAGGAUCACCCAUGUUAUUGUGAUUUUGAUGUGUAAGUUUGUUGCUCGUCUUAU [JR_STOV1_Sub064] (Eterna round: R97, puzzle: Sensor, turn-off variant 1)    class 1
CCAAGUCCAUAGGAUAUCGACCAGUCCUCUGGAUGAGAAGGAUGAACUUGAGGAUCACCCAAGUGGCCUAAUAC [Eddilesove] (Eterna round: R97, puzzle: Exclusion 6)    class 1

Data request: Textbook exercise: identify the category of the sequence given here, UCCGGGUUUGUAGGAUAUAGUCUGCUUUGCAGACUAGAAGGACAUGAGGAUCACCCAUGUUGUGGAAAUUUGGGAUGUUCCUUU [random2] (Eterna round: R96, puzzle: Exclusion NG 1) , according to its measured value.
Data returned: class 2

Data request: Textbook exercise: identify the category of the sequence given here, UAUUAACAAGUAAGAUCCCACAUGAGGAUCACCCAUGUGCUCGUCUUAUAAGGUACUGUGACGAAAGUCACGGUACC [Sensor 3, v1 - 87] (Eterna round: R96, puzzle: Sensor v3, turn-off variant 1) , according to its measured value.
Data returned: class 0

Data request: Textbook exercise: identify the category of the sequence given here, UAGAUGGGAGGAUAUACGUAGAUGCAGGUUCGUGUGGUGCUACAUGAGGAUCACCCAUGUAGAAGGCCCGUCUU [Resubmit R3 JL-ex2-2.29] (Eterna round: R97, puzzle: Exclusion 2) , according to its measured value.
Data returned: class 1
